Ref: paper PMC8546428

targetEntity: sTAAR365 E7.36D (Petromyzon marinus, UniProt A0A678XMK4, E292D)
procedureText: cell-based
readoutName: EC50 (µM)
State just the number; it will be interpreted in µM.

Per the records, this compound ( NCCCCCN ) has EC50 equal to 0.007

Quick note, EC50 for NCCCCN landed at 72

* * *

targetEntity: sTAAR365 T7.42A (Petromyzon marinus, UniProt A0A678XMK4, T298A)
Sequence (A0A678XMK4 1-365 T298A): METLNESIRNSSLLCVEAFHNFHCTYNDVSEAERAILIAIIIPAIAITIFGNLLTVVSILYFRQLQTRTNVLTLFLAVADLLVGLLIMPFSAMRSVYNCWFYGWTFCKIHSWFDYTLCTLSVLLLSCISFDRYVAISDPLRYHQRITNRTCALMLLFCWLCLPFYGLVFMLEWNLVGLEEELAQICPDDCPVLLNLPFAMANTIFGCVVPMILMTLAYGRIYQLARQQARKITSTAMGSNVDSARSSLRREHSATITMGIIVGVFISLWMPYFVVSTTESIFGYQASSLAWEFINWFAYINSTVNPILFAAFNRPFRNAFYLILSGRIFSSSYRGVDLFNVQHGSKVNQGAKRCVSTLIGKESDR
procedureText: cell-based
readoutName: pEC50
On this scale, pEC50 is minus log10 of a concentration expressed in M (mol/L).

Form field pEC50, entry NCCCCCN [cadaverine] : 4.51

* * *

targetEntity: mTAAR9 W7.40Y (Mus musculus, UniProt Q5QD04, W298Y)
Construct: expressed in transfected cells; host or cells: Hana3A (HEK293-derived)
Sequence (Q5QD04 whole entry W298Y): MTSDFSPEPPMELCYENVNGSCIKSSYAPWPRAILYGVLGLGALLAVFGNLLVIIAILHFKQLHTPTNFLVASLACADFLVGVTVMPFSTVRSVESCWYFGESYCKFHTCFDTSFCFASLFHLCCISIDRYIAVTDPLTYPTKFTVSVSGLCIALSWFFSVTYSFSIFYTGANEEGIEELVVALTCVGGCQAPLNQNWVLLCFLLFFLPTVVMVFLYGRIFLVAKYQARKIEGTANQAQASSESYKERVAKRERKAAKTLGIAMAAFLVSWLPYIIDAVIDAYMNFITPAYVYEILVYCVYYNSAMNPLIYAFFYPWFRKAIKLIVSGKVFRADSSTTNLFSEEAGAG
procedureText: CRE-luciferase reporter assay, mTAAR9 mutant in Hana3A
Assay type: cell-based
testConditions: read-out: EC50 (mean ± S.D., n = 3)
readoutName: EC50 (µM)
Please respond with the number in µM and leave the unit unwritten.

Consider NCCCCNCCCN . Its measured EC50 is 2

Noted for NCCCCCN : its EC50 reads 28

* * *

targetEntity: sTAAR365 W7.40Y (Petromyzon marinus, UniProt A0A678XMK4, W296Y)
Sequence (A0A678XMK4 1-365 W296Y): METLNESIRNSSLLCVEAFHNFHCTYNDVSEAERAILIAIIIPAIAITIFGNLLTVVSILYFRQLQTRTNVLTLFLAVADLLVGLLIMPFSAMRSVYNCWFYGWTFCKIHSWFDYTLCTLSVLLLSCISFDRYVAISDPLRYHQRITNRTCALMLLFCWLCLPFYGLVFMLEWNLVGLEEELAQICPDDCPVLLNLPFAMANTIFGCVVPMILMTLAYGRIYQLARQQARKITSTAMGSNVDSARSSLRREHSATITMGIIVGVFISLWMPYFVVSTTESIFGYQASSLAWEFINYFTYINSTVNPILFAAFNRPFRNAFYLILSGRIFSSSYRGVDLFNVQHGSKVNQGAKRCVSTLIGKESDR
procedureText: cell-based
readoutName: EC50 (µM)
Write it as a number; the unit µM goes unstated.

Recorded result, NCCCCCN , EC50: 0.127

EC50 measured on NCCCNCCCCNCCCN = 530

* * *

targetEntity: sTAAR365 Y7.43L (Petromyzon marinus, UniProt A0A678XMK4, Y299L)
procedureText: cell-based
readoutName: pEC50
# pEC50: negative log10 of molar concentration; output just the value

// pEC50 value for NCCCCCN : 6.00
